- assay notes: Tissue concentrations 75 min after oral administration
- Format: in vivo, mouse
- conditions used: C57BL/6, mouse, soleus muscle, po, 30 mg/kg, soleus, 30 mg/kg oral, 75 min, individual mice; read-out: Conc. (µM) Soleus
assay endpoint: concentration at 75 min

INSERT INTO assay_data (smiles_record, assay_endpoint, experimental_result) VALUES
  ('COc1ccc2c(C)c(C(=O)O)ccc2c1C1C2=C(CC(C)(C)CC2=O)OC2=C1C(=O)CC(C)(C)C2', 'concentration at 75 min', '10.8 µM');

* * *

- assay notes: Pharmacokinetics: plasma concentration after oral administration
- Assay type: in vivo, mouse
- conditions used: C57BL/6, mouse, plasma, po, 1 mg/kg, plasma, 1 mg/kg oral, 4 hr, individual mice; read-out: Conc. (µM) 4 hr
- Experimental: C57BL/6 mice that had been denied access to food overnight received the indicated oral dose of DS20060511, and blood samples were collected from the tail vein at the indicated timepoints. Plasma samples for quantitation of DS20060511 were prepared by centrifugation. […] The soleus and gastrocnemius muscles, heart, and inguinal WAT were removed and homogenized in water (5 vol.) for quantitation of the drug concentrations. […]
assay endpoint: concentration at 4 hr (µM)

INSERT INTO measurements (smiles_record, experimental_result) VALUES
  ('COc1ccc2c(C)c(C(=O)O)ccc2c1C1C2=C(CC(C)(C)CC2=O)OC2=C1C(=O)CC(C)(C)C2', 0);

* * *

- assay notes: Pharmacokinetics: plasma concentration after oral administration
- Type: in vivo, mouse
- conditions used: C57BL/6, mouse, plasma, po, 1 mg/kg, plasma, 1 mg/kg oral, 1.25 hr, individual mice; read-out: Conc. (µM) 1.25 hr
assay endpoint: concentration at 1.25 hr (µM)

INSERT INTO results (molecule, experimental_result) VALUES
  ('COc1ccc2c(C)c(C(=O)O)ccc2c1C1C2=C(CC(C)(C)CC2=O)OC2=C1C(=O)CC(C)(C)C2 [DS20060511]', 0.23);

* * *

- assay notes: Pharmacokinetics: plasma concentration after oral administration
- Type: in vivo, mouse
- conditions used: C57BL/6, mouse, plasma, po, 30 mg/kg, plasma, 30 mg/kg oral, 0.5 hr, individual mice; read-out: Conc. (µM) 0.5 hr
assay endpoint: concentration at 0.5 hr (µM)

INSERT INTO assay_data (smiles_record, experimental_result) VALUES
  ('COc1ccc2c(C)c(C(=O)O)ccc2c1C1C2=C(CC(C)(C)CC2=O)OC2=C1C(=O)CC(C)(C)C2', 77.7);

* * *

- assay notes: Pharmacokinetics: plasma concentration after oral administration
- Assay type: in vivo, mouse
- conditions used: C57BL/6, mouse, plasma, po, 1 mg/kg, plasma, 1 mg/kg oral, 6 hr, individual mice; read-out: Conc. (µM) 6 hr
- Experimental: C57BL/6 mice that had been denied access to food overnight received the indicated oral dose of DS20060511, and blood samples were collected from the tail vein at the indicated timepoints. Plasma samples for quantitation of DS20060511 were prepared by centrifugation. […] The soleus and gastrocnemius muscles, heart, and inguinal WAT were removed and homogenized in water (5 vol.) for quantitation of the drug concentrations. […]
assay endpoint: concentration at 6 hr (µM)

INSERT INTO measurements (smiles_record, experimental_result) VALUES
  ('COc1ccc2c(C)c(C(=O)O)ccc2c1C1C2=C(CC(C)(C)CC2=O)OC2=C1C(=O)CC(C)(C)C2', 0);
